System: P. aeruginosa strain MP-3
assayMethodText: Broth dilution MIC determination (CLSI) against P. aeruginosa strain MP-3
Assay type: cell-based
studyConditions: Pseudomonas aeruginosa, MP3
measurementName: MIC

Below are worked cases with known answers.
>>> reportedmeasurement("CC[C@H]1OC(=O)C(C)C(=O)[C@H](C)[C@@H](O[C@@H]2O[C@H](C(=O)O)CC(N(C)C)[C@H]2O)[C@](C)(OC)C[C@@H](C)CN[C@H](C)[C@H]2NC(=O)O[C@@]21C (some centres unmarked) [Compound 193]")
"≥ 32 µg/mL"
>>> reportedmeasurement("CC[C@H]1OC(=O)C(C)C(=O)[C@H](C)[C@@H](O[C@@H]2OC(CNCc3cccc(-c4cncnc4)c3)CC(N(C)C)C2O)[C@](C)(OC)C[C@@H](C)CN[C@H](C)[C@H]2NC(=O)O[C@@]21C (some centres unmarked) [Compound 20]")
"≥ 32 µg/mL"
>>> reportedmeasurement("CC[C@H]1OC(=O)C(C)C(=O)[C@H](C)[C@@H](O[C@@H]2OC(CNCc3ccc(F)cn3)CC(N(C)C)C2O)[C@](C)(OC)C[C@@H](C)CN[C@H](C)[C@H]2NC(=O)O[C@@]21C (some centres unmarked) [Compound 38]")
"≥ 32 µg/mL"
>>> reportedmeasurement("CC[C@H]1OC(=O)C(C)C(=O)[C@H](C)[C@@H](O[C@@H]2O[C@H](CCc3ccccc3)CC(N(C)C)[C@H]2O)[C@](C)(OC)C[C@@H](C)CN[C@H](C)[C@H]2NC(=O)O[C@@]21C (some centres unmarked) [Compound 186]")
"≥ 32 µg/mL"

Please examine the following record next.
Ask: Given the compound CC[C@H]1OC(=O)C(C)C(=O)[C@H](C)[C@@H](O[C@@H]2O[C@H](CNC3CC3)CC(N(C)C)[C@H]2O)[C@](C)(OC)C[C@@H](C)CN(C)[C@H](C)[C@H]2N(C)C(=O)O[C@]12C (some centres unmarked) [Compound 191] , what is its reported MIC?
Reply: ≥ 32 µg/mL
